Measured inhibition at 4 µg/mL by item
# Tested on: butyrylcholinesterase (BChE) (Equus caballus)
# Assay explanation: Cholinesterase inhibition activity assay
# Type: biochemical, Equine serum
# Cond: read-out: BChE Percentage of inhibition at 4 µg/mL
Provide only the numeric value, understood in %.

C#CC(C)Oc1ccc2c(=O)c3ccccc3oc2c1 (stereo not shown); 5
O=c1c2ccccc2oc2cc(O)ccc12 [Compound 1, 3-hydroxyxanthone]; 6.55

Record C=C(C)COc1ccc2c(=O)c3ccccc3oc2c1 . Reported inhibition at 4 µg/mL: 2.33

Record O=c1c2ccccc2oc2cc(OCCCc3ccccc3)ccc12 . Reported inhibition at 4 µg/mL: 15.5

Record CC(C)CCOc1ccc2c(=O)c3ccccc3oc2c1 . Reported inhibition at 4 µg/mL: 5.47

Record CC(C)=CCCOc1ccc2c(=O)c3ccccc3oc2c1 . Reported inhibition at 4 µg/mL: 20.9

Record CC(C)=CCOc1ccc2c(=O)c3ccccc3oc2c1 . Reported inhibition at 4 µg/mL: 7.96

* * *

Target or system Acetylcholinesterase (AChE) (Electrophorus electricus, UniProt O42275); recorded quantity IC50.
Provide only the numeric value, understood in µM.

Below, 3 compounds whose answers are already recorded.
CC(C)COc1ccc2c(=O)c3ccccc3oc2c1 [Compound 5, 3-Isobutoxy-9H-xanthen-9-one]; 1.18
CC(C)CCOc1ccc2c(=O)c3ccccc3oc2c1 [Compound 6, 3-(Isopentyloxy)-9H-xanthen-9-one]; 1.84
CCCCOc1ccc2c(=O)c3ccccc3oc2c1 [Compound 3, 3-Butoxy-9H-xanthen-9-one]; 1.4

Record O=c1c2ccccc2oc2cc(OCCCCc3ccccc3)ccc12 [Compound 23, 3-(4-Phenylbutoxy)-9H-xanthen-9-one] . Reported IC50: 0.88

Record CC(C)CCCOc1ccc2c(=O)c3ccccc3oc2c1 [Compound 9, 3-((4-Methylpentyl)oxy)-9H-xanthen-9-one] . Reported IC50: 2.07

Record C=C(C)COc1ccc2c(=O)c3ccccc3oc2c1 [Compound 15, 3-((2-Methylallyl)oxy)-9H-xanthen-9-one] . Reported IC50: 1.6

Record O=c1c2ccccc2oc2cc(O)ccc12 [Compound 1, 3-hydroxyxanthone] . Reported IC50: 2.39

Record COC(=O)COc1ccc2c(=O)c3ccccc3oc2c1 [Compound 27] . Reported IC50: 1.28

Record COCCOCCOc1ccc2c(=O)c3ccccc3oc2c1 [Compound 26] . Reported IC50: 0.97

Record O=c1c2ccccc2oc2cc(OCc3ccccc3)ccc12 [Compound 21, 3-(Benzyloxy)-9H-xanthen-9-one] . Reported IC50: 0.99

* * *

# Tested on: butyrylcholinesterase (BChE) (Equus caballus, UniProt P81908)
# Sequence (P81908 whole entry): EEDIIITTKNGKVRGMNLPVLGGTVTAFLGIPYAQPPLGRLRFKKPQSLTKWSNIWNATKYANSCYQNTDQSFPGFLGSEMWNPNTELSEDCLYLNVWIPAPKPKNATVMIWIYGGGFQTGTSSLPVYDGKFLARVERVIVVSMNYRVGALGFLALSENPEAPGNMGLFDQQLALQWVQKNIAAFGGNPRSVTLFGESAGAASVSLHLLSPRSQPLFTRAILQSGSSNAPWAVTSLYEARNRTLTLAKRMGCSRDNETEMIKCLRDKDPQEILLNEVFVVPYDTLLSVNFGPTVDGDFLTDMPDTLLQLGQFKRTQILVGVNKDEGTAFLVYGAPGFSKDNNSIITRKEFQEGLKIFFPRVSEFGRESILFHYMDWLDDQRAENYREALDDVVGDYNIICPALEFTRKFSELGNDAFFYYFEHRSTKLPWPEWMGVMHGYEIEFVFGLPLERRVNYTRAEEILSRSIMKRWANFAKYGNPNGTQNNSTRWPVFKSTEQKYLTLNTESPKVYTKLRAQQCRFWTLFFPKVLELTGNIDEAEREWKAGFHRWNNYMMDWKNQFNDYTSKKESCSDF
# Assay explanation: Cholinesterase inhibition activity assay
# Type: biochemical, Equine serum
# Cond: read-out: BChE Percentage of inhibition at 4 µg/mL
Measured inhibition at 4 µg/mL by item
Provide only the numeric value, understood in %.

Below, 6 compounds whose answers are already recorded.
O=c1c2ccccc2oc2cc(OCC3CCC3)ccc12 [Compound 10, 3-(Cyclobutylmethoxy)-9H-xanthen-9-one]; 7.01
O=c1c2ccccc2oc2cc(OCCC3CCCCC3)ccc12 [Compound 11, 3-(2-Cyclohexylethoxy)-9H-xanthen-9-one]; 24.3
COC(=O)COc1ccc2c(=O)c3ccccc3oc2c1 [Compound 27]; 7.69
C=CCCCOc1ccc2c(=O)c3ccccc3oc2c1 [Compound 13, 3-(Pent-4-en-1-yloxy)-9H-xanthen-9-one]; 20.9
COCCOCCOc1ccc2c(=O)c3ccccc3oc2c1 [Compound 26]; 17.8
C[C@@H](CO)COc1ccc2c(=O)c3ccccc3oc2c1 [Compound 30]; 5.48

Consider the additional compound presented here.
Record COCCCOc1ccc2c(=O)c3ccccc3oc2c1 [Compound 24, 3-(3-Methoxypropoxy)-9H-xanthen-9-one] . Reported inhibition at 4 µg/mL: 11

* * *

# Tested on: UniProt P81908
# Assay explanation: Cholinesterase inhibition activity assay
# Format: biochemical, Equine serum
# Cond: read-out: BChE Percentage of inhibition at 4 µg/mL
Short version: inhibition at 4 µg/mL at least 10% is Condition met, less is Condition not met.

Example entries and their recorded answers appear below.
CCC(CC)COc1ccc2c(=O)c3ccccc3oc2c1; Condition met
C[C@H](CO)COc1ccc2c(=O)c3ccccc3oc2c1; Condition met
CCC#CCOc1ccc2c(=O)c3ccccc3oc2c1; Condition not met
COCOCCOc1ccc2c(=O)c3ccccc3oc2c1; Condition met

Lab note: next molecule to report on.
Determine whether this molecule has inhibition at 4 µg/mL no lower than 10%: O=c1c2ccccc2oc2cc(OCCCCc3ccccc3)ccc12 Condition not met

* * *

Measured IC50 by item
# Tested on: Acetylcholinesterase (AChE) (Electrophorus electricus)
Provide only the numeric value, understood in nM.

Below, 3 compounds whose answers are already recorded.
CCC(CC)COc1ccc2c(=O)c3ccccc3oc2c1 [Compound 8, 3-(2-Ethylbutoxy)-9H-xanthen-9-one]; 1150
O=c1c2ccccc2oc2cc(OCC3CCC3)ccc12 [Compound 10, 3-(Cyclobutylmethoxy)-9H-xanthen-9-one]; 1610
O=c1c2ccccc2oc2cc(OCCC3CCCCC3)ccc12 [Compound 11, 3-(2-Cyclohexylethoxy)-9H-xanthen-9-one]; 1270

Consider the additional compound presented here.
The observed IC50 for CCOC(=O)COc1ccc2c(=O)c3ccccc3oc2c1 [Compound 28] when tested with Acetylcholinesterase (AChE) (Electrophorus electricus) stands at 880

* * *

# Tested on: UniProt:P81908
# Assay explanation: Cholinesterase inhibition activity assay
# Assay type: biochemical, Equine serum
# Cond: read-out: BChE Percentage of inhibition at 4 µg/mL
Property name: inhibition at 4 µg/mL (%)
Provide only the numeric value, understood in %.

Below, 4 compounds whose answers are already recorded.
CC[C@H](C)COc1ccc2c(=O)c3ccccc3oc2c1 [Compound 7, (S)-3-(2-Methylbutoxy)-9H-xanthen-9-one]; 24.8
CC(C)CCCOc1ccc2c(=O)c3ccccc3oc2c1; 11.8
C=CCCCCOc1ccc2c(=O)c3ccccc3oc2c1; 16.4
CCCCOc1ccc2c(=O)c3ccccc3oc2c1; 17.6

Record CCCOc1ccc2c(=O)c3ccccc3oc2c1 . Reported inhibition at 4 µg/mL: 11.9

Record O=c1c2ccccc2oc2cc(OCc3ccccc3)ccc12 . Reported inhibition at 4 µg/mL: 5.04

Record C=CCCOc1ccc2c(=O)c3ccccc3oc2c1 . Reported inhibition at 4 µg/mL: 5.33

* * *

# Tested on: butyrylcholinesterase (BChE) (Equus caballus)
# Assay explanation: Cholinesterase inhibition activity assay
# Assay type: biochemical, Equine serum
# Cond: read-out: BChE Percentage of inhibition at 4 µg/mL
Property name: inhibition at 4 µg/mL (%)
Provide only the numeric value, understood in %.

Below, 3 molecules whose answers are already recorded.
CC(C)COc1ccc2c(=O)c3ccccc3oc2c1; 9.78
CC(C)Oc1ccc2c(=O)c3ccccc3oc2c1; 20.7
CC#CCOc1ccc2c(=O)c3ccccc3oc2c1; 4.53

Consider the additional molecule presented here.
Record CCOC(=O)COc1ccc2c(=O)c3ccccc3oc2c1 . Reported inhibition at 4 µg/mL: 4.11

* * *

Measured IC50 by item
# Tested on: Acetylcholinesterase (AChE) (Electrophorus electricus, UniProt O42275)
# Sequence (O42275 24-633): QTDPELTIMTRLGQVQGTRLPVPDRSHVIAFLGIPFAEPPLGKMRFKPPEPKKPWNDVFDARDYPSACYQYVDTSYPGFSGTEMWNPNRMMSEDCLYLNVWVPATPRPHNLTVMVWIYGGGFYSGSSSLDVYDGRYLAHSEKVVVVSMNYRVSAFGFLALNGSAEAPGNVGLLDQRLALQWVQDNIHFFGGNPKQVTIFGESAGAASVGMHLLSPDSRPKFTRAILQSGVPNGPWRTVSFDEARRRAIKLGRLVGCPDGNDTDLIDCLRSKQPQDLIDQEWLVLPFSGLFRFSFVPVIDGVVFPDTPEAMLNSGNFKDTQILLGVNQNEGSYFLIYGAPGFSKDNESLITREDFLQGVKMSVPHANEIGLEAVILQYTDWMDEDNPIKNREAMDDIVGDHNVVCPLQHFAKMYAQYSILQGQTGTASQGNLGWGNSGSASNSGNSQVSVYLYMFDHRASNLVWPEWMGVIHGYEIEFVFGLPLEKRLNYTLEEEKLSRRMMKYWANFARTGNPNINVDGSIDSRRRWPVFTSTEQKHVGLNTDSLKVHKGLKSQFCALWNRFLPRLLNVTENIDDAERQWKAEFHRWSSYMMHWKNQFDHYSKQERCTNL
Provide only the numeric value, understood in µM.

Below, 6 compounds whose answers are already recorded.
CCCOc1ccc2c(=O)c3ccccc3oc2c1; 1.86
CC(C)=CCOc1ccc2c(=O)c3ccccc3oc2c1; 1.86
C=CCCOc1ccc2c(=O)c3ccccc3oc2c1; 2.09
CCC#CCOc1ccc2c(=O)c3ccccc3oc2c1; 1.21
C#CC(C)Oc1ccc2c(=O)c3ccccc3oc2c1 (stereo not shown); 2.24
CC[C@H](C)COc1ccc2c(=O)c3ccccc3oc2c1 [Compound 7, (S)-3-(2-Methylbutoxy)-9H-xanthen-9-one]; 1.74

The observed IC50 for COCOCCOc1ccc2c(=O)c3ccccc3oc2c1 when tested with Acetylcholinesterase (AChE) (Electrophorus electricus, UniProt O42275) stands at 1.37

The observed IC50 for CC(C)=CCCOc1ccc2c(=O)c3ccccc3oc2c1 when tested with Acetylcholinesterase (AChE) (Electrophorus electricus, UniProt O42275) stands at 1.06

The observed IC50 for O=c1c2ccccc2oc2cc(OCCCc3ccccc3)ccc12 when tested with Acetylcholinesterase (AChE) (Electrophorus electricus, UniProt O42275) stands at 1.22

The observed IC50 for CC(C)Oc1ccc2c(=O)c3ccccc3oc2c1 when tested with Acetylcholinesterase (AChE) (Electrophorus electricus, UniProt O42275) stands at 1.41

* * *

# Tested on: Acetylcholinesterase (AChE) (Electrophorus electricus, UniProt O42275)
Measured IC50 by item

Below, 5 compounds whose answers are already recorded.
CC#CCOc1ccc2c(=O)c3ccccc3oc2c1 [Compound 18, 3-(But-2-yn-1-yloxy)-9H-xanthen-9-one]; > 3.79 µM
COCCCOc1ccc2c(=O)c3ccccc3oc2c1 [Compound 24, 3-(3-Methoxypropoxy)-9H-xanthen-9-one]; > 3.52 µM
C=CCCCOc1ccc2c(=O)c3ccccc3oc2c1 [Compound 13, 3-(Pent-4-en-1-yloxy)-9H-xanthen-9-one]; > 3.57 µM
C[C@@H](CO)COc1ccc2c(=O)c3ccccc3oc2c1 [Compound 30]; > 3.52 µM
C=CCCCCOc1ccc2c(=O)c3ccccc3oc2c1 [Compound 14, 3-(Hex-5-en-1-yloxy)-9H-xanthen-9-one]; > 3.4 µM

Consider the additional compound presented here.
The observed IC50 for C[C@H](CO)COc1ccc2c(=O)c3ccccc3oc2c1 [Compound 29] when tested with Acetylcholinesterase (AChE) (Electrophorus electricus, UniProt O42275) stands at > 3.52 µM
